- EXPERIMENTAL PROTOCOL: solvent given as SMILES
- CONDITION PARAMETERS: in OCC(F)(F)F
The entries below come with measured emission maximum values attached.
Write down the numeric answer in nm and omit the unit.

Check out these entries, answers already filled in.
> print(dat)
                               given.smiles   recorded.metric  unit.info  test.result
1  CCC1=C(C)C2=C(C)c3cc(I)c(I)n3[B-](F)(F)[N+]2=C1C  emission maximum         nm        542.5
2  CCCCN1C(=O)C(=C/C=C/C=C/C=C2N(CCCC)c3ccccc3N2CCCC)C(=O)N(CCCC)C1=S  emission maximum         nm          663
3             Cc1cc2c(o1)c(C)cc1ccc(=O)oc12  emission maximum         nm          485

Lookup result for CC1=C(C(C)(C)C)C(C)=[N+]2C1=C(C)c1c(C)c(C(C)(C)C)c(C)n1[B-]2(F)F ; measured emission maximum: 561.2

Looking up N#Cc1c[nH]c2ccccc12 , I see its emission maximum listed as 314

====

- EXPERIMENTAL PROTOCOL: solvent given as SMILES
- CONDITION PARAMETERS: in CCOC(C)=O
// reported emission maximum for each item listed
The reply should be a number in nm, with the unit left off.

A selection of reference data follows.
> print(dat)
                               given.smiles   recorded.metric  test.result
1  CC1=[N+]2C(=C(c3ccc(N4CCOCC4)cc3)c3ccc(C)n3[B-]2(F)F)C=C1  emission maximum          520
2  COc1cc(N(c2ccccc2)c2ccccc2)ccc1C=C(C#N)C#N  emission maximum          573
3  CC1(C)CC(/C=C/c2ccc(-n3c4ccccc4c4ccccc43)cc2)=CC(=C(C#N)C#N)C1  emission maximum          565
4  O=C1c2ccc3c4ccc5c6c(ccc(c7ccc(c2c37)C(=O)N1c1ccncc1)c64)C(=O)N(c1ccncc1)C5=O  emission maximum          567

Moving on to another molecule below.
Sample COc1ccc(/C=C/C2=CC(/C=C/c3ccc(OC)cc3)=[O+][B-](F)(F)O2)cc1 ; emission maximum observed: 515

====

- EXPERIMENTAL PROTOCOL: solvent given as SMILES
- CONDITION PARAMETERS: in Cc1ccccc1
Measured emission maximum by item
Answer with the figure and its unit, nothing else.

COMPOUND	TEST RESULT
Fc1ccc(N(c2ccc(F)cc2)c2ccc3c4cccc5c(N(c6ccc(F)cc6)c6ccc(F)cc6)ccc(c6cccc2c63)c54)cc1	540 nm
N#Cc1cc(C#N)c(-c2ccc(N(c3ccccc3)c3ccccc3)cc2)cc1-c1ccc(N(c2ccccc2)c2ccccc2)cc1	477 nm
COCCC1=Cc2nc1ccc1[nH]c(cc1CCOC)c1nc(c(O)cc3[nH]c2cc3CCOC)C(CCOC)=C1	688 nm
O=c1c2ccccc2sc2ccc(-n3c4ccccc4c4ccccc43)cc12	447.5 nm
Cc1ccc(-c2c3ccc([nH]3)c3nc(c(-c4ccc(C#N)cc4)c4ccc([nH]4)c4ccc([nH]4)c(-c4ccc(C)cc4)c4ccc2o4)C=C3)cc1	722 nm

The compound listed as Cn1c(=O)c(/N=N/c2ccc(S(=O)(=O)O)c3ccccc23)c(O)c2ccccc21 shows emission maximum equal to 540 nm

// emission maximum value for N#Cc1cc2nc3c(nc2cc1C#N)C1c2ccc(N(c4ccccc4)c4ccccc4)cc2C3c2ccc(N(c3ccccc3)c3ccccc3)cc21 : 552 nm

// emission maximum value for CCCCN1C(=O)C(=C/C=C/C=C/C=C2N(CCCC)c3ccccc3N2CCCC)C(=O)N(CCCC)C1=S : 715 nm

The compound O=P1(c2ccccc2)C2=C(c3ccccc31)[Si](c1ccccc1)(c1ccccc1)c1cc(N(c3ccccc3)c3ccccc3)ccc12 (stereo not given) showed emission maximum equal to 558 nm

Please fill in: emission maximum reported for CCCC1=Cc2nc1ccc1[nH]c(cc1CCC)c1nc(c(OC(C)=O)cc3[nH]c2cc3CCC)C(CCC)=C1 = 650 nm

emission maximum in this record for CCCCCCC(CCCCCC)N1C(=O)c2cccc3c(-c4ccc(-c5ccc(OC)cc5)cc4)ccc(c23)C1=O : 454.6 nm

Noted for C(=C\c1nc(/C=C/c2ccc(N(c3ccccc3)c3ccccc3)cc2)cc(/C=C/c2ccc(N(c3ccccc3)c3ccccc3)cc2)n1)/c1ccccc1 : its emission maximum reads 482 nm

Entry Fc1c(F)c(-n2c3ccccc3c3ccccc32)c(F)c(-n2c3ccccc3c3ccccc32)c1-c1nnc(-c2ccccc2)o1 , emission maximum reported as 449 nm

Entry Fc1c(F)c(-n2c3ccccc3c3ccccc32)c(F)c(F)c1-c1nnc(-c2ccccc2)o1 ; emission maximum = 444 nm

Cc1ccc2c(c1)C(c1ccccc1)(c1ccccc1)c1cc(C)ccc1N2c1ccc2c(c1)Sc1ccccc1B2c1c(C(C)C)cc(C(C)C)cc1C(C)C has a reported emission maximum of 493 nm

The compound identified as CCN(CC)c1ccc2cc(/C=C/C(O)=C3\CC/C(=C\c4cc5ccc(N(CC)CC)cc5oc4=O)C3=O)c(=O)oc2c1 registered its emission maximum at 570 nm

Recorded result, O=S(=O)(c1cccc(N2c3ccccc3Oc3ccccc32)c1)c1cccc(N2c3ccccc3Oc3ccccc32)c1 , emission maximum: 547 nm

// field: emission maximum; key: c1ccc(-c2nc(-c3ccccc3)nc(-c3ccc(-n4c5ccccc5c5cc6c(cc54)C4c5ccccc5C6c5ccccc54)cc3)n2)cc1 ; value = 432 nm

Lab note: CCCCN1C(=O)c2cccc3c(OC)ccc(c23)C1=O gave emission maximum of 422 nm

response.value for Cc1ccc(C(=O)/C=C/c2ccc(N(C)C)cc2)cc1 (field: emission maximum) = 477 nm

emission maximum reported for this compound O=P(c1ccccc1)(c1ccccc1)n1c2ccccc2c2cc(-n3c4ccccc4c4cc(-n5c6ccccc6c6ccccc65)ccc43)ccc21 : 373 nm

Reported emission maximum ( N#Cc1c(C#N)c(-n2c3ccccc3c3ccccc32)c(-n2c3ccccc3c3ccccc32)c(-n2c3ccccc3c3ccccc32)c1-n1c2ccccc2c2ccccc21 ) = 525 nm

The reported value for CC(C)(C)c1ccc2c(c1)c1cc(C(C)(C)C)ccc1n2-c1ccc2oc3nc4oc5ccc(C(F)(F)F)cc5c4cc3c2c1 in terms of emission maximum is 422 nm

Notebook: F[B-]1(F)n2c(-c3cccs3)cc(-c3cccs3)c2N=C2C(c3cccs3)=CC(c3cccs3)=[N+]21 , emission maximum read as 765 nm

For this compound ( CCCCCCc1ccc2c(/C=N/c3ccc(/N=C/c4c(O)ccc5cc(CCCCCC)ccc45)cc3)c(O)ccc2c1 ), measured emission maximum is 546 nm

emission maximum reported for this compound O=Cc1ccc2nc(C#Cc3ccc(N(c4ccccc4)c4ccccc4)cc3)sc2c1 : 473 nm

emission maximum recorded for this compound, F[B-]1(F)Oc2ccccc2-c2nc(-c3ccccc3)c3cc(Cl)ccc3[n+]21 , is 542 nm

Looking up CCCCOc1ccc(-c2oc3c(-c4ccc(OCCCC)cc4)c4n(c3c2-c2ccc(OCCCC)cc2)[B-](F)(F)[N+]2=Cc3c(-c5ccc(OCCCC)cc5)c5oc(-c6ccc(OCCCC)cc6)c(-c6ccc(OCCCC)cc6)c5n3[B-](F)(F)[N+]2=C4)cc1 , I found its emission maximum recorded as 668 nm

Kindly note the recorded emission maximum for Cc1ccccc1/C(C#N)=C/c1ccc(N(C)C)cc1 , which is 464 nm

Lab note: measured emission maximum of N#Cc1cc(-n2c3ccccc3c3ccccc32)c(-n2c3ccccc3c3ccccc32)cc1-c1cc(-n2c3ccccc3c3ccccc32)c(-n2c3ccccc3c3ccccc32)cc1C#N was 458 nm

====

- EXPERIMENTAL PROTOCOL: solvent given as SMILES
- CONDITION PARAMETERS: in C1COCCO1
RECORDED METRIC: emission maximum (nm)
Hi! Could you send only the number? It should be in nm, unit omitted.

Examples from the recorded data:
> print(dat)
                                   molecule   recorded.metric  unit.info  test.result
1                       N#Cc1cccc2cc[nH]c12  emission maximum         nm          367
2  CC(C)(C)c1ccc(-c2nc3c4ccccc4c4ccccc4c3n2-c2ccc(C(C)(C)C)cc2)cc1  emission maximum         nm          389
3  CCN(CC)c1ccc2cc(/C=C/C3=C4CC/C(=C\c5cc6ccc(N(CC)CC)cc6oc5=O)C4=[O+][B-](F)(F)O3)c(=O)oc2c1  emission maximum         nm          675
4  CCN(CC)c1ccc2cc(/C=C/C(O)=C3\CC/C(=C\c4cc5ccc(N(CC)CC)cc5oc4=O)C3=O)c(=O)oc2c1  emission maximum         nm          581
5  COc1ccc2n1[B-](F)(F)[N+]1=C(c3ccccc3)C=CC1=C2c1ccc(C)cc1  emission maximum         nm          556

Could you now consider this next molecule?
get_value(item= O=Cc1cc(O)c(C=O)cc1O , readout=emission maximum) returns 468
